- experimental.target: Chromobox protein homolog 7 (Homo sapiens) (UniProt O95931)
- Sequence (O95931 whole entry): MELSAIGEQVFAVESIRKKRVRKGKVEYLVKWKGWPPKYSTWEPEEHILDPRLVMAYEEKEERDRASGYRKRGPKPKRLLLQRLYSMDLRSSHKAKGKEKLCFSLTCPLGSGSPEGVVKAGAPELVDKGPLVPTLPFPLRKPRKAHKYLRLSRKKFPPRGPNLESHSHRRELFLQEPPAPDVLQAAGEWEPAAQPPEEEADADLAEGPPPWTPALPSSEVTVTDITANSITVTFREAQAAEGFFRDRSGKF
- method.summary: Antagonist activity at Flag-tagged CBX7 (unknown origin) assessed as inhibition of CBX7/biotinylated H3K9Me3 peptide interaction at 30 uM after 30 mins by AlphaScreen assay
Active and inactive are the calls of the source. The calls are words filed in the database; no cut-off is given here.
readout.type: inhibition

Below are worked cases with known answers.
Log: Chromobox protein homolog 7 (Homo sapiens) (UniProt O95931), compound CNC(=O)c1cccc(C(=O)N2CCC(N3CCCC3)CC2)c1 , inhibition = inactive

Log: Chromobox protein homolog 7 (Homo sapiens) (UniProt O95931), compound CNC1CCN(C(=O)c2cccc(Br)c2)CC1 , inhibition = 3%

Log: Chromobox protein homolog 7 (Homo sapiens) (UniProt O95931), compound O=C(c1cccc(Br)c1)N1CCC(N2CC=CC2)CC1 , inhibition = 18%

Log: Chromobox protein homolog 7 (Homo sapiens) (UniProt O95931), compound O=C(O)c1cccc(C(=O)N2CCC(N3CCCC3)CC2)c1 , inhibition = 4%

Now for the compound whose inhibition we want.
Log: Chromobox protein homolog 7 (Homo sapiens) (UniProt O95931), compound O=S(=O)(c1cccc(Br)c1)N1CCC(N2CCCC2)CC1 , inhibition = inactive
